Residues, ends and D or L forms follow the SMILES beside them.
measurementType: melting point

CN(C)S(=O)(=O)c1c(C(F)(F)F)nn(-c2c(Cl)cc(C(F)(F)F)cc2Cl)c1N; 178 to 179 °C
CC(Nc1nc(N)nc(C(F)(F)F)n1)c1ccc(Cl)cc1 (stereo unspecified); 99 °C
Cc1cc2c(c3c1NC(=O)CC3)OC(CN=[N+]=[N-])C2 (stereo unspecified); 146 to 149 °C

Would you kindly share the measured melting point for CC(=O)C(C#N)c1ccccc1 (stereo unspecified) ?
> 215 °C

Query NC(=O)CNC(=O)[C@@H]1CCCN1 (H-Pro-Gly-NH2) next
124 to 127 °C

Please give the result for COCCn1cc(-c2ccccc2)n(C(C)=O)c1=O too.
73 to 75 °C

Ok, now OC(CCCl)COc1ccc(Cl)cc1 (stereo unspecified)
62 to 64 °C

Next: Cc1cc(CO)c2c(N)c(C(N)=O)sc2n1
> 210 °C

----------
Measured melting point values are reported for all entries that follow.

Worked examples follow.
COc1ccc(Oc2c(Br)cc(C#N)cc2Br)cc1Cc1ccc(=O)[nH]n1; 214 to 216 °C
FC(F)(F)c1cc(Cl)c(-n2cc(C3CC3(Br)Br)nn2)c(Cl)c1 (stereo not given); 156 to 158 °C
Cc1noc(NC(=O)CCl)c1C; 97 to 100 °C
CC(C)Nc1cccnc1N1CCN(C(=O)c2ccc(C(=O)NCCN3CCCCC3)cc2)CC1; 106 to 107 °C
CCCCCCCCCCCCn1c2nc(=O)[nH]c(=O)c-2nc2cc(C)c(C)cc21; 223 to 224 °C
COc1cc(OC)nc(C(OC)(C(=O)NS(C)(=O)=O)c2ccccc2)n1 (stereo not given); 155 to 157 °C
COc1ccccc1-c1ccc(C(=O)N2Cc3ccc(C(=O)O)n3Cc3ccccc32)cc1C; 133 to 135 °C
CC(=O)C1CCC2=C(C1)C(=O)c1cc3ccccc3cc1C2=O (stereo not given); 189 to 192 °C
O=C(c1ccc(F)cc1)C1CCN(CCCn2c(=O)[nH]c3ccccc32)CC1; 164 °C

Shifting focus to the compound that follows.
Fill in: melting point of CC(Cc1ccccc1)(C(=NC#N)NCc1ccco1)c1ccccn1 (stereo not given) is ___
152 to 154 °C

----------
Each entry below carries its recorded melting point.

Worked cases, answers included:
c1cc2cc3ccc(OCCN4CCCCC4)cc3nc2cc1OCCN1CCCCC1; 129 to 130 °C
N#Cc1ccc(-c2ccc(-c3ccn([C@H](CC(=O)OCc4ccccc4)C(=O)N[C@H](CO)Cc4ccccc4)c3)cc2)cc1; 149 to 150 °C
COC(=O)C(=O)CC(C)C1CCC2C3CC=C4CC(OC(C)=O)CCC4(C)C3CCC12C (stereo not drawn); 146 to 147 °C
COC(=O)[C@H]1CC[C@@H](n2nc(-c3c(-c4ccccc4)nn4ccccc34)ccc2=O)[C@H](O)C1 (relative stereo); 169 to 172 °C
N#Cc1ccc(Cn2c(=O)[nH]c3cc(Cl)cc(Cl)c3c2=O)cc1; 317 to 320 °C
CCOC(=O)c1nnc(-c2cc3sc(C)c(N(C)S(=O)(=O)c4cccs4)c3[nH]2)s1; 209 °C
N#Cc1nn(-c2ccc(S(N)(=O)=O)cc2)c2c1CSc1ccccc1-2; 211 to 213 °C

# lookup: melting point of COc1ccc(-c2c(C)ncc(C#N)c2Nc2ccc3[nH]ccc3c2C)cc1OC
202 to 203 °C

Data origin, for the record: a melting point compilation (Tetko et al.; mined from patent text by program, amines drawn as free bases though some values may be those of a salt)
